# experimental_target: Ca2+ channel (L, verapamil site)
# method: Radioligand binding assay for Ca2+ channel ([3H]-D888)
# Set-up: species or system rat
# applied_conditions: rat cortex tissue; [3H]-D888
# Method: The radioligand binding studies for K^+ and Ca^2+ channels were performed commercially by Eurofins Cerep (Celle l’Evescault, France) using testing procedures described elsewhere. […]
IC50 reference
attribute_measured: IC50 (µM)

> print(dat)
                                   molecule  measurement
1  Cl.O=C1CCCN1CCCCN1CCN(c2ccccc2Cl)CC1 [S-75]        0.757
2  COc1ccc(CCN(C)CCCC(C#N)(c2cc(OC)c(OC)c(OC)c2)C(C)C)cc1OC [D-600, reference compound]        0.037
